Cited source for all entries: PubChem BioAssay (NCI)

Could you please report measured growth for the items listed next?
Tested on: 786-0 renal
Experiment: NCI-60 one-dose screen, 48 h (100 = growth as untreated, 0 = no growth, -100 = all killed)
Settings: 10 µM unless noted
This is part of a sample that, as a whole, favours compounds with a hit. Of some 83,000 tested, about 20% had one in any assay.
Give bare numbers, in %.

Recorded results for 2 compounds are shown here.
COc1cc(/C=N/N(C)C)ccc1O
109
CC1(C)CC(C(=O)OCCCCCCCCCCC[P+](c2ccccc2)(c2ccccc2)c2ccccc2)C(C)(C)N1O (stereo unspecified)
-75.4

Value sought for every listed compound: growth.
1. Cn1cc(-c2ccc(-c3cn(C)c4ncccc34)[nH]2)c2cccnc21
2. O=C1c2cc3c(cc2-c2c1c1cc(Cl)c(Cl)cc1c(=O)n2CCCn1ccnc1)OCO3
3. CC(=O)CC(C)(C)c1ccc(Cl)cc1
4. COc1ccc(-c2c3c(nc4n[nH]c(-c5ccc(Cl)cc5)c24)-c2ccccc2C(=O)C3=O)cc1
5. CC(C)Oc1nc2c(c(=O)n(C)c(=O)n2C)n1C

[out]
1. 99
2. -3.17
3. 97.8
4. 7.58
5. 104

* * *

Tested on: M14 melanoma
Experiment: NCI-60 one-dose screen, 48 h (100 = growth as untreated, 0 = no growth, -100 = all killed)
Conditions: 10 µM unless noted
This is part of a sample that, as a whole, favours compounds with a hit. Of some 83,000 tested, about 20% had one in any assay.
readoutLabel: growth (%)
One number for each entry, in %.

COc1cc(-c2nc3ccccc3s2)ccc1NC(=O)COc1ccc(Cl)cc1
60
CC(=O)N1CC(Nc2ccc(OC(F)(F)F)cc2)=CC1=O
4.04
O=C(CN1CCN(c2cc3c(cc2F)c(=O)c(C(=O)O)cn3C2CC2)CC1)Nc1nc(-c2ccc(Cl)cc2)cs1
27.5
O=C(Cn1cc(CN2C(=O)c3ccccc3S2(=O)=O)nn1)Nc1ccc([N+](=O)[O-])cc1Cl
106
COc1ccc(/C=C/C(=O)c2c(O)c(C)c(O)c3c2OC2=CC(O)=C(C(C)=O)C(=O)[C@]23C)cc1
-7.97

Look at each molecule and report its growth.
1. COc1ccc(CN(c2ccc(C)cc2)C2OC(=O)c3ccccc32)cc1OC (stereo not drawn)
2. CCN(CC)CCCC(C)Nc1ccnc2c(OC)cccc12 (stereo not drawn)
3. CCCCN(CCCC)CCC(C)(O)c1cc2ccccc2c2ccccc12 (stereo not drawn)
4. COc1ccc(-c2cc(-c3cccnc3)nc3sc4c(=O)n(-c5ccc(C)cc5)nnc4c23)cc1OC
5. COc1cc(OC)c(/C=C/c2cc[n+](C)c3ccccc23)c(OC)c1
6. COc1cccc(NC(=O)c2sc3nc4c(cc3c2N)CN(Cc2ccccc2)CC4)c1
7. CC1(C)CC(C(=O)OCCCCCCCCCCC[P+](c2ccccc2)(c2ccccc2)c2ccccc2)C(C)(C)N1O (stereo not drawn)

[out]
110
108
90.7
104
36.2
68.2
-13.2

Each molecule below has a recorded value; state its growth.
1. O=C(O)c1ccccc1Nc1cccc(S(F)(F)(F)(F)F)c1
2. Oc1cccc(Nc2nccc(-c3ccc4ccccc4c3)n2)c1
3. COc1ccc(C2c3ccc4ccccc4c3Oc3ncnc(N)c32)cc1 (stereo not drawn)
4. CCCCCCCCCCCCCCCC(=O)OCC1OC(n2cnc3c(=S)nc(N)[nH]c32)C(OC(=O)CCCCCCCCCCCCCCC)C1OC(=O)CCCCCCCCCCCCCCC (stereo not drawn)
5. Cc1ccc(C2CC3c4ccccc4C2C2CCCCN32)cc1 (stereo not drawn)
6. Cc1cc(-c2nc3ccccc3s2)ccc1NC(=O)COc1ccc(Cl)cc1

[out]
1: 102; 2: 8.25; 3: 83; 4: 34.1; 5: 94.5; 6: 100

Hey, can you go through the list below and give me growth for every item?
1. CNC(=S)N/N=C/CSC/C=N/NC(=S)NC
2. COc1cc(C(=O)/C=C/c2c(C)n([O-])c3ccc(C)cc3[n+]2=O)cc(OC)c1OC
3. Clc1cccc(Nc2nc(Nc3cnc4ccccc4c3)c3[nH]cnc3n2)c1
4. CCOC(=O)c1nc(Nc2cc(C)[nH]n2)c2ccccc2n1
5. Nc1ccc(N2CCOCC2)cc1
6. NC(CC(=O)O)C(=O)OCc1ccccc1 (stereo not drawn)

[out]
1. 92.5
2. 60.1
3. 88
4. 80.9
5. 94.1
6. 104

* * *

System: DU-145 prostate
Assay: NCI-60 one-dose screen, 48 h (100 = growth as untreated, 0 = no growth, -100 = all killed)
Settings: 10 µM unless noted
Procedure: Cells are grown in 96 well plates and exposed to the test compound for 48 hours. Compounds are tested at a single concentration, which is 10^-5 M for most compounds. The reported endpoint is percent growth (GI% or GIPRCNT), where numbers from 0 - 100% represent growth inhibition, and numbers from -100% - 0 represent cell death. For example, a value of 40 represents 60% growth inhibition. A value of 0 means no net growth occurred over the course of the experiment. […]
About 83,000 compounds went through this panel and 20% of them were active in at least one assay; those are over-represented in the sample as a whole.
Answer each item with its documented growth.
One number for each entry, in %.

C[C@]12C[C@@H](c3ccoc3)OC(=O)[C@@H]1CC[C@]1(C)[C@@H]2CC[C@@H](O)[C@]1(C)O
73
O=C(Nc1ccc(Nc2cc(Nc3ccccc3)ncn2)cc1)Nc1cc(C(F)(F)F)ccc1F
65.7
S=c1[nH]nc(CSc2ncnc3c2c(-c2ccccc2)cn3-c2ccc(Cl)cc2)o1
106

For each listed entry, give its growth.
1. COc1ccc(-n2c(C)nc3c(c(C)nn3-c3ccccc3)c2=O)cc1
2. CCOC(=O)C(C#N)C1CCCCC1 (configuration not stated)
3. CC(C)C1=C[C@@]23CC[C@@H]4[C@](C)(CCC[C@@]4(C)C(=O)OCC#CCN4CCCC4)[C@H]2C[C@@H]1[C@H]1C(=O)OC(=O)[C@H]13
4. CCN(CC)Cc1cc(Nc2c3ccc(Cl)cc3nc3c(C)cccc23)ccc1O
5. CCCCCCCCCC(=O)Oc1ccc(/C(=C(/C)Cc2cccc(OC)c2)c2ccc(OCCN(C)C)cc2)cc1
6. CN1CCCCC1CCN1c2ccccc2Sc2ccc(Cl)cc21 (configuration not stated)
7. NC1=CSC2=N/C(=C\c3ccc(Cl)cc3)C(=O)N12

[out]
1. 0.999
2. 104
3. 89.2
4. 2.09
5. 108
6. 67
7. 77.9

* * *

Tested on: CCRF-CEM leukemia
Assay: NCI-60 one-dose screen, 48 h (100 = growth as untreated, 0 = no growth, -100 = all killed)
Settings: 10 µM unless noted
This is part of a sample that, as a whole, favours compounds with a hit. Of some 83,000 tested, about 20% had one in any assay.
readoutLabel: growth (%)
One number for each entry, in %.

Field: growth. Fill in for each record below.
1. COc1ccc(-c2c3c(nc4n[nH]c(-c5ccc(Cl)cc5)c24)-c2ccccc2C(=O)C3=O)cc1
2. CCCCNC(=O)NS(=O)(=O)c1ccc(N2N=C(c3cc(C)ccc3C)CC2c2cc(OC)c(OC)c(OC)c2)cc1 (centres undefined)
3. CC/C(Cc1ccccc1)=C(/c1ccc(O)cc1)c1ccc(OCCN2CCCC2)cc1
4. COc1ccc2nc3cc(Cl)ccc3c(NCCNCC(O)CO)c2c1 (centres undefined)
5. Oc1ccc(Nc2nccc(-c3ccc4ccccc4c3)n2)cc1

[out]
1. -6.2
2. 55.1
3. -33.3
4. 25
5. 9.76

# batch: return growth for each of the 4 molecules below
1. CC/C(=C(\c1ccc(O)cc1)c1ccc(OCCN(C)CCN(C)C(=O)CCCCC(=O)c2c(C)[nH]c(/C=C3\N=C(c4ccc[nH]4)C=C3OC)c2C)cc1)c1ccccc1
2. COc1ccc(/C=C2\N=C3Sc4cc(Cl)ccc4C(=O)N3C2=O)cc1
3. CC(=O)OCC1OC(OC2=C(CC=C(Cl)Cl)C(=O)c3ccccc3C2=O)C(OC(C)=O)C(OC(C)=O)C1OC(C)=O (centres undefined)
4. COc1cc(-c2cnc3nonc3n2)c(OC)c2c1OCO2

[out]
1. 45.6
2. 93.4
3. -19.3
4. 85.3

* * *

Test system: MDA-MB-435 melanoma
Assay: NCI-60 one-dose screen, 48 h
Details: 10 µM unless noted
This is part of a sample that, as a whole, favours compounds with a hit. Of some 83,000 tested, about 20% had one in any assay. The source made the active and inactive calls. Rule for the calls: active = growth percent below 10; inactive = the rest.
Write down the outcome that applies. Available outcomes: active, inactive

Below, 4 compounds whose answers are already recorded.
Nc1c(C(=O)Nc2ccccc2Cl)sc2nc3c(cc12)CCCCCC3
active
C=C1CC[C@@H]2[C@](C)(COC(C)=O)[C@H](OC(C)=O)CC[C@@]2(C)[C@@H]1CC(NCc1ccc(F)cc1)C1=CCOC1=O (stereo not given in full)
inactive
CN(C)c1ccc(/C=C\C2=[N+](C)c3ccccc3C2(C)C)cc1
active
CCN(CC)CC(C)Nc1ccc([N+](=O)[O-])c2sc3ccccc3c(=O)c12 (stereo not given)
inactive

Please examine the following record next.
[in] Lab log entry: CCN(CC)Cc1cc(Nc2c3ccc(Cl)cc3nc3c(C)cccc23)ccc1O — outcome as called in the assay?
[out] active
